Source: paper PMC10247784

Target: human TAS2R1 (Homo sapiens)
Construct: expressed in transfected cells; host or cells: HEK293T-Gα16gust44
Sequence (Q9NYW7 whole entry): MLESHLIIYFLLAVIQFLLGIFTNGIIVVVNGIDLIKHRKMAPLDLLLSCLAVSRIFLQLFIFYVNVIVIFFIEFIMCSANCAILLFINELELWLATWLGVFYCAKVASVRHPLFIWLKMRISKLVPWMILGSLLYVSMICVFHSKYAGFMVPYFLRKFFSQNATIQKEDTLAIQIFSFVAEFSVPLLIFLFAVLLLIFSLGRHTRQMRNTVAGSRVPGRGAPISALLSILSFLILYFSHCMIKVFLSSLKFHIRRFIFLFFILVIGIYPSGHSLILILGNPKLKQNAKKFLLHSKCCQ
Test: Calcium imaging assay (FLIPR), HEK293T-Gα16gust44 cells transfected with human TAS2R1
Assay type: cell-based
Conditions: Time 12 s
Measurement name: RLU (RLU)
Give the number; RLU is assumed, so skip it.

What value of RLU has been reported for the following compound? C[C@H](CCC(=O)NCCS(=O)(=O)O)[C@H]1CC[C@H]2[C@@H]3CC[C@@H]4C[C@H](O)CC[C@]4(C)[C@H]3CC[C@]12C
15.1496

What value of RLU has been reported for the following compound? C[C@H](CCC(=O)O)[C@H]1CC[C@H]2[C@@H]3CC[C@@H]4C[C@H](O)CC[C@]4(C)[C@H]3C[C@H](O)[C@]12C
14.8432

What value of RLU has been reported for the following compound? C[C@H](CCC(=O)NCCS(=O)(=O)O)[C@H]1CC[C@H]2[C@@H]3[C@H](O)C[C@@H]4C[C@H](O)CC[C@]4(C)[C@H]3C[C@H](O)[C@]12C
4.801

What value of RLU has been reported for the following compound? C[C@H](CCC(=O)NCC(=O)O)[C@H]1CC[C@H]2[C@@H]3[C@H](O)C[C@@H]4C[C@H](O)CC[C@]4(C)[C@H]3C[C@H](O)[C@]12C
-1.765
